Quick reference for CC50 among some compounds
Test system: M. tuberculosis H37Rv growth inhibition
Test: M. tuberculosis H37Rv growth inhibitors, H37Rv strain (AID 1626)
Settings: measured here: Vero cell cytotoxicity
Use µM as the unit, but write only the number.

| substance.smiles | readout.units | CC50 |
| --- | --- | --- |
| Cc1cccc(OCCCCc2c(C)n[nH]c2C)c1C | µM | 30.2 |
| C=C1C(=O)O[C@@H]2C[C@@H](C)[C@@H]3C=CC(=O)[C@@]3(C)[C@@H](OC(C)=O)[C@H]12 | µM | 2.02 |
| O=C(Nc1ccc(C(F)(F)F)cc1)N1CCN(c2ccnc3cc(Cl)ccc23)CC1 | µM | 8.22 |

Now, please, on to the next compound.
Measured CC50, `Cc1ccc(-c2nn(-c3ccccc3)cc2NC(=O)CCl)cc1` : 27.1

----------
System: M. tuberculosis H37Rv growth inhibition
Experiment: M. tuberculosis H37Rv growth inhibitors, H37Rv strain (AID 1626)
Conditions: measured here: IC90 against H37Rv
Quick reference for IC90 among some compounds
Use µM as the unit, but write only the number.

| substance.smiles | IC90 [µM] |
| --- | --- |
| O=C(Nc1nnc(-c2ccc(Cl)cc2)o1)C1=COCCO1 | 11.4 |

Measured IC90, `Cc1cccc(C)c1N1CCN(c2ccc3nnc(C(F)(F)F)n3n2)CC1` : 61.8

Measured IC90, `Cc1cc(C(=O)CCl)c(C)n1-c1cccc([N+](=O)[O-])c1` : 15.7

Measured IC90, `O=C(Nc1nnc(-c2cccs2)o1)c1cccc(Oc2ccccc2)c1` : 2.67

----------
Tested on: M. tuberculosis H37Rv growth inhibition
Assay: M. tuberculosis H37Rv growth inhibitors, H37Rv strain (AID 1626)
pIC50: −log10 of the molar value.
attribute.measured: pIC50

Measured pIC50, `COc1ccc(NC(=O)CN(C)CC(=O)Nc2cccc(F)c2)cc1Cl` : 4.49

Measured pIC50, `CC(=O)OCCNc1cc(SCc2ccco2)c2nonc2c1[N+](=O)[O-]` : 6.18

Measured pIC50, `CN(CCCC[C@H](CNCc1ccc(-c2ccccc2)cc1)N1C[C@H](c2ccccc2)N(CCc2ccc(Cl)c(Cl)c2)C(=O)C1=O)Cc1ccc(-c2ccccc2)cc1` : 5.30

Measured pIC50, `O=C(Nc1nnc(-c2cccs2)o1)c1cccc(Oc2ccccc2)c1` : > 6.71

Measured pIC50, `FC(F)(F)c1ccc(N2CCOCC2)c(Nc2nc3ccccc3n3cnnc23)c1` : 5.07

Measured pIC50, `COc1ccccc1OC(=O)CCN1c2ccccc2Sc2ccccc21` : 4.93

Measured pIC50, `Cc1cc(C)c(-c2csc(NC(=O)/C=C/c3cccs3)n2)c(C)c1` : 5.33

----------
System: M. tuberculosis H37Rv growth inhibition
Experiment: M. tuberculosis H37Rv growth inhibitors, H37Rv strain (AID 1626)
Conditions: measured here: IC90 against H37Rv
attribute.measured: IC90 (µM)
Use µM as the unit, but write only the number.

Known IC90 results, listed for orientation:
| compound | system.tested | readout.units | IC90 |
| --- | --- | --- | --- |
| O=C(/C=C/c1ccc(Cl)cc1Cl)c1cccnc1 | M. tuberculosis H37Rv growth inhibition | µM | 3.35 |
| C/C(=C\C(=S)Nc1ccccc1)Nc1ccc2ccccc2c1 | M. tuberculosis H37Rv growth inhibition | µM | 48.9 |
| COC(=O)CCCn1c(C)cc(C(=O)CCl)c1C | M. tuberculosis H37Rv growth inhibition | µM | 18.4 |
| CC(C)(C)c1ccc(C(=O)NCCCN2CCN(CCCNC(=O)c3ccc(C(C)(C)C)cc3)CC2)cc1 | M. tuberculosis H37Rv growth inhibition | µM | 7.12 |
| Cc1ccc(N2C(=O)C(F)(F)C2c2ccccc2)cc1 (stereo not given) | M. tuberculosis H37Rv growth inhibition | µM | 19.7 |
| COc1ccc(C2(O)CC3CCC(C2)N3c2cc(C)nc(-c3ccccc3)n2)cc1 (stereo not given) | M. tuberculosis H37Rv growth inhibition | µM | 23.9 |
| COc1cc2nc(C3CCC3)nc(N3CCN(c4ccccc4OC)CC3)c2cc1OC | M. tuberculosis H37Rv growth inhibition | µM | 6.52 |
| Cc1nn2c(N3CCN(C)CC3)cc(C(C)(C)C)nc2c1-c1ccccc1 | M. tuberculosis H37Rv growth inhibition | µM | 4.55 |

Simply: `O=C(CSc1nc2ccccc2o1)NCC(=O)c1ccccc1` , M. tuberculosis H37Rv growth inhibition, IC90 = 25.9

Simply: `CC(=O)/C=C/c1ccc2ccccc2n1` , M. tuberculosis H37Rv growth inhibition, IC90 = 6.34

Simply: `COC(=O)CSc1nnc(-c2ccc(OC)c(OC)c2)o1` , M. tuberculosis H37Rv growth inhibition, IC90 = 5.53

Simply: `O=C(C=C=Nc1ccccc1)C(=O)N=C=Cc1ccccc1` , M. tuberculosis H37Rv growth inhibition, IC90 = 25

Simply: CC1(c2ccccc2)CC(C)(C)N(C(=O)c2cc([N+](=O)[O-])cc([N+](=O)[O-])c2)c2ccccc21 (stereo not given) , M. tuberculosis H37Rv growth inhibition, IC90 = 54.5

Simply: `COC(=O)COc1ccc2c(=O)c(Oc3ccccc3)c(C)oc2c1` , M. tuberculosis H37Rv growth inhibition, IC90 = 10

Simply: `CCN(CC)c1ccc(N=Cc2ccc([N+](=O)[O-])o2)cc1` , M. tuberculosis H37Rv growth inhibition, IC90 = 45.6

Simply: COc1ccc(CN2CCN(CC(O)Cn3c4ccccc4c4ccccc43)CC2)cc1 (stereo not given) , M. tuberculosis H37Rv growth inhibition, IC90 = 8.3

Simply: `Cc1cc(NCCCn2ccnc2)n2nc(-c3ccc(Cl)cc3)cc2n1` , M. tuberculosis H37Rv growth inhibition, IC90 = 15.8

Simply: `Cc1ccc(C(C)C)c(OCc2nn(CC(=O)c3ccc(OC(F)F)cc3)c3[n+]2CCCCC3)c1` , M. tuberculosis H37Rv growth inhibition, IC90 = 1.46

----------
Quick reference for CC50 among some compounds
Tested on: M. tuberculosis H37Rv growth inhibition
Assay: M. tuberculosis H37Rv growth inhibitors, H37Rv strain (AID 1626)
Conditions: measured here: Vero cell cytotoxicity
Use µM as the unit, but write only the number.

Known CC50 results, listed for orientation:
| compound | system.tested | attribute.measured | experimental.value |
| --- | --- | --- | --- |
| Nc1nc(F)nc2c1ncn2[C@@H]1O[C@H](CO)[C@@H](O)[C@H]1O | M. tuberculosis H37Rv growth inhibition | CC50 | 0.218 |
| Cc1ccc(C(=O)CC(SCC(=O)O)c2ccc([N+](=O)[O-])cc2)cc1 (stereo unspecified) | M. tuberculosis H37Rv growth inhibition | CC50 | 36.8 |
| O=C(c1nnsc1S(=O)(=O)c1ccc(Cl)cc1)N1CCOCC1 | M. tuberculosis H37Rv growth inhibition | CC50 | 11.3 |
| COc1cccc(C(=O)Nc2ccc3nc(N4CCN(c5ncccn5)CC4)cc(C)c3c2)c1OC | M. tuberculosis H37Rv growth inhibition | CC50 | 15.2 |

Now, please, on to the next compound.
Measured CC50, `O=C(Nc1ccc(F)c(Cl)c1)Nc1csc2ccccc12` : 7.06

----------
System: M. tuberculosis H37Rv growth inhibition
Test: M. tuberculosis H37Rv growth inhibitors, H37Rv strain (AID 1626)
Conditions: measured here: Vero cell cytotoxicity
Quick reference for log10 of CC50 among some compounds
Base-10 log of CC50, unit µM.

Known log10 of CC50 results, listed for orientation:
| compound | experimental.value |
| --- | --- |
| Cc1ccc(Oc2nc(-c3ccccn3)nc3ccccc23)cc1 | 1.35 |
| Cc1c(Cc2ccccc2)c(=O)n2c([nH]c3ccccc32)c1C#N | 1.11 |
| COC(=O)/C(=C1/Oc2cc(C)oc(=O)c2S1)C(F)(F)F | 0.80 |
| O=c1[nH]c(-c2ccccn2)nc2sc(-c3ccccc3)cc12 | 0.34 |
| CC(=O)n1cc(N(C(=O)CCl)c2ccccc2)c2ccccc21 | -0.10 |
| CCN(CC)CCC(c1ccc2c(c1)OCO2)c1c(OC)cc(OC)c2c(-c3ccccc3)cc(=O)oc12 (stereo unspecified) | 1.22 |

Measured log10 of CC50, `Cc1ccc(C(=O)/C=C/c2ccc(-c3ccc(C)cc3)o2)cc1` : 1.34

Measured log10 of CC50, `CN1CCN(C2=Cc3ccc(Cl)cc3Sc3ccc(F)cc32)CC1` : 1.53

----------
System: M. tuberculosis H37Rv growth inhibition
Assay: M. tuberculosis H37Rv growth inhibitors, H37Rv strain (AID 1626)
Quick reference for pIC50 among some compounds
Quick note: pIC50 values are minus log10 of concentrations in mol/L.

Known pIC50 results, listed for orientation:
| compound | attribute.measured | experimental.value |
| --- | --- | --- |
| CCOC(=O)C1CCCc2c1[nH]c1c(C(N)=O)cccc21 (stereo unspecified) | pIC50 | 5.47 |
| COc1cccc(/C=C/C(=O)c2cccc([N+](=O)[O-])c2)c1 | pIC50 | 5.16 |
| O=C(Nc1cccc2ccccc12)c1ccc([N+](=O)[O-])s1 | pIC50 | 4.29 |
| CCCCOC(=O)c1ccc(NC(=O)C(=O)NCCN(CC)CC)cc1 | pIC50 | 4.45 |
| CCOC(=O)c1ccc(NC(=O)CCc2nc(-c3ccc(Cl)cc3)no2)cc1 | pIC50 | 6.05 |

Now, please, on to the next compound.
Measured pIC50, `CCOC(=O)c1ccc(NC(=O)CCc2ccc(CC)o2)cc1` : 5.65

From: PubChem BioAssay AID1626
